B1: Syntaxin-binding protein 4, residues 493 to 538; numbered along this chain, Q6ZWJ1 (parent)
chain: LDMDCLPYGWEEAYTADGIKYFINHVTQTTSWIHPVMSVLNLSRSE

Variants of: B1
Experiment summary: abundance fitness (aPCA) (normalised: wild type 0, dead -1); higher = more abundant; growth selection in yeast, the domain comes from the species named
Experimental conditions: Homo sapiens
Response key: fulfilled means abundance fitness >= -0.5; not fulfilled means abundance fitness < -0.5.

Known results for variants:
- L42E: fulfilled
- I33D: fulfilled
- I23Q: not fulfilled
- S45Y: fulfilled
- G9R: not fulfilled

## Input Confirm if abundance fitness reported for the variant `S43A` is -0.5 or above.
## Output not fulfilled

Data provenance is the Human Domainome abundance scans (Beltran et al. 2025).
